All figures here come from the supplement of paper PMC5908809.

The entries below are paired with their reported percent inhibition of viability.
- System: normal primary NK cells, pool 1 (3 donors), resting (IL-2 0 ng/mL)
- PROTOCOL_DETAILS: percent inhibition of viability; higher = more inhibition
- MEASUREMENT_PARAMETERS: 72 h; 1 nM
READOUT_LABEL: percent inhibition of viability (%)

INSERT INTO measurements (compound, readout_unit, measured_value) VALUES
  ('c1ccc([C@H]2CN3CCSC3=N2)cc1 [Levamisole] (max concentration tested 10000 nM)', '%', -4.85),
  ('COc1cc2nccc(Oc3ccc(NC(=O)C4(C(=O)Nc5ccc(F)cc5)CC4)cc3)c2cc1OC [Cabozantinib] (max concentration tested 1000 nM)', '%', -5.07),
  ('CNC(=O)c1ccc(C)c(-n2c(C)cc(OCc3ccc(F)cc3F)c(Br)c2=O)c1 (max concentration tested 1000 nM)', '%', 3.54),
  ('COc1cc2c(cc1-c1c(C)noc1C)ncc1[nH]c(=O)n([C@H](C)c3ccccn3)c12 [I-BET151] (max concentration tested 10000 nM)', '%', 11.1),
  ('C[C@]12C=CC(=O)C=C1CC[C@@H]1[C@@H]2C(=O)C[C@@]2(C)[C@H]1CC[C@]2(O)C(=O)CO [Prednisone] (max concentration tested 10000 nM)', '%', 11.6),
  ('CO[C@H]1C[C@@H]2CC[C@@H](C)[C@@](O)(O2)C(=O)C(=O)N2CCCC[C@H]2C(=O)O[C@H]([C@H](C)C[C@@H]2CC[C@@H](O)[C@H](OC)C2)CC(=O)[C@H](C)/C=C(\C)[C@@H](O)[C@@H](OC)C(=O)[C@H](C)C[C@H](C)/C=C/C=C/C=C/1C [Sirolimus] (max concentration tested 100 nM)', '%', 3.7),
  ('CNc1nc(-c2ccc3c(N)n[nH]c3c2)cc(N2C[C@@H](C(=O)NC3CCCCC3)CC[C@H]2C)n1 (max concentration tested 10000 nM)', '%', -13.3),
  ('CC[C@@]1(O)C(=O)OCc2c1cc1n(c2=O)Cc2cc3c(CN(C)C)c(O)ccc3nc2-1 [Topotecan] (max concentration tested 10000 nM)', '%', -1.44),
  ('Cc1cn(-c2cc(NC(=O)c3ccc(C)c(Nc4nccc(-c5cccnc5)n4)c3)cc(C(F)(F)F)c2)cn1 [Nilotinib] (max concentration tested 10000 nM)', '%', 7.74),
  ('COc1cc(N2CCN(C)CC2)ccc1Nc1nccc(-c2cn(C)c3cnccc23)n1 [AZ191] (max concentration tested 10000 nM)', '%', 1.62),
  ('C[C@@H]1COC(Nc2ccc3ncnc(Nc4ccc(OCc5nccs5)c(Cl)c4)c3c2)=N1 [Varlitinib] (max concentration tested 10000 nM)', '%', -8.46),
  ('CCc1c(C(=O)C(N)=O)c2c(OCC(=O)O)cccc2n1Cc1ccccc1 [Varespladib] (max concentration tested 10000 nM)', '%', -21.1),
  ('CCc1cc(Nc2nccc(-c3c(-c4ccc(OC)c(C(=O)Nc5c(F)cccc5F)c4)nc4ccccn34)n2)c(OC)cc1N1CCC(N2CCN(S(C)(=O)=O)CC2)CC1 (max concentration tested 10000 nM)', '%', -6.68),
  ('CO[C@@]12[C@H](COC(N)=O)C3=C(C(=O)C(C)=C(N)C3=O)N1C[C@@H]1N[C@@H]12 [Mitomycin C] (max concentration tested 10000 nM)', '%', 3.33),
  ('C1=N/C2=N/c3ccc(OCCN4CCCC4)c(c3)COC/C=C/COCc3cccc(c3)C(=C1)N2 [Pacritinib] (max concentration tested 10000 nM)', '%', -8.26),
  ('O=C(NC1CCNCC1)c1n[nH]cc1NC(=O)c1c(Cl)cccc1Cl [AT7519] (max concentration tested 10000 nM)', '%', -42.2),
  ('Cc1ncc(-c2ccnc(Nc3ccc(S(C)(=O)=O)cc3)n2)n1C(C)C [AZD-5438] (max concentration tested 10000 nM)', '%', 4.17),
  ('Cc1ccc(NC(=O)c2ccc(CN3CCN(C)CC3)cc2)cc1Nc1nccc(-c2cccnc2)n1 [Imatinib] (max concentration tested 10000 nM)', '%', -3.96),
  ('S=C(NCc1ccc2c(c1)OCO2)N1CCN(c2ncnc3c2oc2ccccc23)CC1 [Amuvatinib] (max concentration tested 10000 nM)', '%', 7.55),
  ('CS(=O)(=O)c1ccc(C2=C(c3ccccc3)C(=O)OC2)cc1 [Rofecoxib] (max concentration tested 10000 nM)', '%', -13.7),
  ('CC(C)n1nc(-c2ccc3oc(N)nc3c2)c2c(N)ncnc21 [INK128] (max concentration tested 1000 nM)', '%', 6.92),
  ('CCN(c1cc(-c2ccc(CN3CCOCC3)cc2)cc(C(=O)NCc2c(C)cc(C)[nH]c2=O)c1C)C1CCOCC1 [E7438] (max concentration tested 10000 nM)', '%', 6.57),
  ('Cc1nc(Nc2n[nH]c3c2CN(C(=O)N[C@H](CN(C)C)c2ccccc2)C3(C)C)c2sccc2n1 (max concentration tested 10000 nM)', '%', 5.47);

====

The entries below are paired with their reported percent inhibition of viability.
- Test system: SNK-6 (IL-2 2.5 ng/mL)
- PROTOCOL_DETAILS: percent inhibition of viability; higher = more inhibition
- MEASUREMENT_PARAMETERS: 72 h; 100 nM
READOUT_LABEL: percent inhibition of viability

INSERT INTO measurements (compound, readout_label, measured_value) VALUES
  ('Oc1c2ccccc2c2c3c(cccc13)N=N2 (max concentration tested 100000 nM)', 'percent inhibition of viability', '-15.7%'),
  ('COc1ccccc1S(=O)(=O)Nc1ccc2c(c1)CN(C)C(=O)N2 [PFI-1] (max concentration tested 10000 nM)', 'percent inhibition of viability', '7.82%'),
  ('Cc1c(Cn2c(C)nc3c(C(=O)O)cc(N4CCOCC4)cc32)cccc1C(F)(F)F (max concentration tested 10000 nM)', 'percent inhibition of viability', '3.71%'),
  ('CN(C)C[C@@H]1CCn2cc(c3ccccc32)C2=C(C(=O)NC2=O)c2cn(c3ccccc23)CCO1 [Ruboxistaurin] (max concentration tested 10000 nM)', 'percent inhibition of viability', '-3.03%');

====

- Tested on: IMC-1 (IL-2 20 ng/mL)
- PROTOCOL_DETAILS: percent inhibition of viability; higher = more inhibition
- MEASUREMENT_PARAMETERS: 72 h; 25 nM
The entries below are paired with their reported percent inhibition of viability.
READOUT_LABEL: percent inhibition of viability (%)

INSERT INTO measurements (compound, system, readout_label, measured_value) VALUES
  ('CCNC(=O)Nc1ccc(-c2nc3c(c(N4CCOC[C@@H]4C)n2)CCN(C2COC2)C3)cc1 [RG-7603] (max concentration tested 2500 nM)', 'IMC-1 (IL-2 20 ng/mL)', 'percent inhibition of viability', -9.05),
  ('CN1CCN(C2CCN(C(=O)Nc3cc(Oc4ccc(NC(=O)C5(C(=O)Nc6ccc(F)cc6)CC5)c(F)c4)ccn3)CC2)CC1 [Golvatinib] (max concentration tested 2500 nM)', 'IMC-1 (IL-2 20 ng/mL)', 'percent inhibition of viability', -2.39),
  ('COc1cc(C(=O)NC2CCN(C)CC2)c(F)cc1Nc1ncc2c(n1)N(C1CCCC1)CC(F)(F)C(=O)N2C [TAK-960] (max concentration tested 2500 nM)', 'IMC-1 (IL-2 20 ng/mL)', 'percent inhibition of viability', 9.33),
  ('COc1cc2nccc(Oc3ccc(NC(=O)NC4CC4)c(Cl)c3)c2cc1C(N)=O [Lenvatinib] (max concentration tested 2500 nM)', 'IMC-1 (IL-2 20 ng/mL)', 'percent inhibition of viability', -2.37);

====

- Tested on: normal primary NK cells, pool 1 (3 donors) (IL-2 2.5 ng/mL)
- PROTOCOL_DETAILS: drug sensitivity score (DSS) (DSS units); higher = more sensitive; extreme values may be limits of the assay
- MEASUREMENT_PARAMETERS: 72 h
The entries below are paired with their reported drug sensitivity score.
READOUT_LABEL: drug sensitivity score

INSERT INTO measurements (molecule, measured_value) VALUES
  ('O=C(NC1CCNCC1)c1n[nH]cc1NC(=O)c1c(Cl)cccc1Cl [AT7519] (max concentration tested 10000 nM)', 18.6),
  ('CCN(c1cc(-c2ccc(CN3CCOCC3)cc2)cc(C(=O)NCc2c(C)cc(C)[nH]c2=O)c1C)C1CCOCC1 [E7438] (max concentration tested 10000 nM)', 0),
  ('CN(C)/N=N/c1[nH]cnc1C(N)=O [Dacarbazine] (max concentration tested 10000 nM)', 0),
  ('O=C(c1cc(Cc2n[nH]c(=O)c3ccccc23)ccc1F)N1CCN(C(=O)C2CC2)CC1 [Olaparib] (max concentration tested 10000 nM)', 0),
  ('CO[C@H]1C[C@@H]2CC[C@@H](C)[C@@](O)(O2)C(=O)C(=O)N2CCCC[C@H]2C(=O)O[C@H]([C@H](C)C[C@@H]2CC[C@@H](O)[C@H](OC)C2)CC(=O)[C@H](C)/C=C(\C)[C@@H](O)[C@@H](OC)C(=O)[C@H](C)C[C@H](C)/C=C/C=C/C=C/1C [Sirolimus] (max concentration tested 100 nM)', 0.01),
  ('CC(C)N(CCCNC(=O)Nc1ccc(C(C)(C)C)cc1)C[C@H]1O[C@@H](n2cc(Br)c3c(N)ncnc32)[C@H](O)[C@@H]1O [SGC0946] (max concentration tested 10000 nM)', 0.32),
  ('C[C@]12CC[C@H](O)CC1=CC[C@@H]1[C@@H]2CC[C@]2(C)C(c3cccnc3)=CC[C@@H]12 [Abiraterone] (max concentration tested 5000 nM)', 0),
  ('Cc1nc(Nc2n[nH]c3c2CN(C(=O)N[C@H](CN(C)C)c2ccccc2)C3(C)C)c2sccc2n1 (max concentration tested 10000 nM)', 9.34),
  ('COc1cc(C(=O)NC2CCN(C)CC2)c(F)cc1Nc1ncc2c(n1)N(C1CCCC1)CC(F)(F)C(=O)N2C [TAK-960] (max concentration tested 2500 nM)', 0),
  ('CO[C@@]12[C@H](COC(N)=O)C3=C(C(=O)C(C)=C(N)C3=O)N1C[C@@H]1N[C@@H]12 [Mitomycin C] (max concentration tested 10000 nM)', 2.74),
  ('Cc1nc(N)sc1-c1ccnc(Nc2ccc(N3CCOCC3)cc2)n1 [CYC-116] (max concentration tested 10000 nM)', 6.12);
